Numbers sourced from paper PMC8792006.

Target: T1, ^NDD9 Met (N-terminal docking domain of stambomycin PKS subunit Pks9, version with the Met start site) (Streptomyces ambofaciens ATCC23877)
T1 chain: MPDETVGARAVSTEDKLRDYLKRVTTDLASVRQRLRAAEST
Experiment: ITC; ^CDD (700 μM) in the syringe titrated into the ^NDD in the cell (^NDD5 70 μM; ^NDD9 Met 80 μM; ^NDD9 Val 120 μM); 20 °C; buffer GF (20 mM HEPES, 100 mM NaCl, 0.5 mM TCEP, pH 7.5); one-site binding model; two independent titrations
Settings: both partners purified

binder	units_of_measure	Kd
^CDD8 (C-terminal docking domain of stambomycin PKS subunit Pks8) (domain or fragment) GPGSYGPAALLADLDRLDAALAGTGPGDETRSRVISRLHALLARHDTADGSGLVTAAGNLDAADDDNLFAFIDNELGA	µM	33
